assay: Solubility in phosphate buffer (0.16 M); format: physicochemical; settings: aqueous buffer, thermodynamic from solid, pH 5.0, room temperature
Property label: solubility (mM)
Give the number; mM is assumed, so skip it.

Recorded results for 2 compounds are shown here.
Compound: O=C(O)Cc1ccc(-c2ccccc2)cc1 [compound 1, reference compound]
solubility (mM): 0.57
--
Compound: NCCO.O=C(O)Cc1ccc(-c2ccccc2)cc1
solubility (mM): 29

Now let's try a different one.
Give the measured solubility of O=C([O-])Cc1ccc(-c2ccccc2)cc1.[Na+] .
14.2

----------
assay: In vitro skin permeation study, Franz-type diffusion cell; type: in vitro ADME; conditions: male, Wistar, rat, pH 5; read-out: Kp x10^6 (permeability coefficient) (converted)
Property label: Papp (×10⁻⁶ cm/s)
Give the number; ×10⁻⁶ cm/s is assumed, so skip it.

Recorded results for 2 compounds are shown here.
Compound: O=C([O-])Cc1ccc(-c2ccccc2)cc1.[Na+]
Papp, ×10⁻⁶ cm/s: 0.0333

Compound: O=C(O)Cc1ccc(-c2ccccc2)cc1 [compound 1, reference compound]
Papp, ×10⁻⁶ cm/s: 0.208

Now let's try a different one.
Give the measured Papp of NCCO.O=C(O)Cc1ccc(-c2ccccc2)cc1 .
0.0222
